Assayed Target: human H4 receptor (Homo sapiens (Human), UniProt Q9H3N8)
Assay Details: Binding assay on recombinant human histamine H4 receptor ([3H]histamine competition, SK-N-MC cell membranes)
Measurement Setup: membranes harvested with cell harvester; [3H]histamine 10 nM; average of results; read-out: Cell Harvester Ki
Metric: Ki (nM)

Recorded results for 5 compounds are shown here.
Compound: CN[C@@H]1CCN(c2cnnc(NCC3CC3)c2)C1
Ki, nM: 23.9
--
Compound: CN1CCN(c2cnnc(NC3CC4CCC3C4)c2)CC1 (stereo not shown)
Ki, nM: 178
--
Compound: CN[C@@H]1CCN(c2cnnc(N[C@H](C)C3CCCCC3)c2)C1
Ki, nM: 6.16
--
Compound: COCCNc1cc(N2CCN(C)CC2)ccn1
Ki, nM: 701
--
Compound: N[C@@H]1CCN(c2cnnc(NCC3CCCC3)c2)C1
Ki, nM: 161

A. CN[C@@H]1CCN(c2ccnc(NCC34CC5CC(CC(C5)C3)C4)c2)C1
B. CNC1CN(c2cnnc(NC3CC4CCC3C4)c2)C1 (stereo not shown)
Among A and B , which shows a numerically higher Ki result? Indicate your choice by writing its label.
B

P. CNC1CN(c2cnnc(NC3CCCCC3)c2)C1
Q. CN1CCN(c2ccnc(NCc3ccc(F)cc3)n2)CC1
Among P and Q , which shows a numerically higher Ki result? Your answer should be the label attached to the chosen record.
P
